Assembled from different publications: IC50 for Poly [ADP-ribose] polymerase tankyrase-1 (Homo sapiens, UniProt O95271).
Answer in nM, number only, no unit symbol.

The recorded IC50 for entry O=C(NC1CC1)c1nc[nH]c1C(=O)N[C@H]1CC[C@@]2(CCN(c3ccc(F)cc3Cl)C2=O)CC1 equals 12

The recorded IC50 for entry CC(C)(O)CNC(=O)c1nc[nH]c1C(=O)N[C@H]1CC[C@H](C(=O)Nc2cc(N3CCOCC3)ccc2Cl)CC1 equals 1300

The recorded IC50 for entry O=C(CCc1ccccc1O)N(Cc1nc2c(c(=O)[nH]1)COCC2)Cc1cccs1 equals 5190

The recorded IC50 for entry COc1ccc2ncc(C(=O)N[C@H]3CC[C@H](C(=O)Nc4ccc(F)cc4Cl)CC3)n2n1 equals 110

The recorded IC50 for entry CNc1ccc2ncc(C(=O)N[C@H]3CC[C@H](C(=O)Nc4ccc(F)cc4Cl)CC3)n2n1 equals 150

The recorded IC50 for entry CC(C)(C)C1Cc2[nH]c(=O)c3cnccc3c2CO1 (racemic) equals 43.9

The recorded IC50 for entry O=C(c1cccc(OC(F)(F)F)c1)C1CCN(CC(=O)N(Cc2nc3c(c(=O)[nH]2)COCC3)CC(F)F)CC1 equals 155

The recorded IC50 for entry COc1ccc2c(c1)CC1(CCN(CC(=O)N(Cc3nc4c(c(=O)[nH]3)COCC4)CC(F)F)CC1)C2=O equals 10

The recorded IC50 for entry Cc1ccn2ncc(C(=O)N[C@H]3CC[C@@]4(CCN(c5ccc(F)cc5Cl)C4=O)CC3)c2n1 equals 11

The recorded IC50 for entry O=C(CN1CCC(C(=O)c2ccc3c(c2)OCO3)CC1)NCc1nc2c(c(=O)[nH]1)COCC2 equals 129

The recorded IC50 for entry O=C(CCc1ccccc1)N(Cc1nc2c(c(=O)[nH]1)COCC2)Cc1nccs1 equals 11400

The recorded IC50 for entry COCCNC(=O)c1nc[nH]c1C(=O)N[C@H]1CC[C@@]2(CCN(c3cc(F)c(F)cc3Cl)C2=O)CC1 equals 7.3

The recorded IC50 for entry O=C(CN1CCC(C(=O)c2ccc(OCC3CC3)cc2)CC1)NCc1nc2c(c(=O)[nH]1)COCC2 equals 23

The recorded IC50 for entry COCCNC(=O)c1nc[nH]c1C(=O)N[C@H]1CC[C@@]2(CCN(c3cccc(Cl)c3)C2=O)CC1 equals 310

The recorded IC50 for entry O=C(NCCN1CCCCC1)c1nc[nH]c1C(=O)N[C@H]1CC[C@H](C(=O)Nc2cc(F)c(F)cc2Cl)CC1 equals 2.2

----------
Assembled from different publications: IC50 for UniProt O95271.
Records here are stratified by IC50; strata: low bin = under 30 nM, mid bin = from 30 nM up to 200 nM, high bin = 200 nM and over

Qu. Kindly state the category for this compound: CNC(=O)c1[nH]cnc1C(=O)N[C@@H]1CC[C@@H](C(=O)Nc2ccc(F)cc2Cl)CC1(F)F (stereo in doubt)
Ans. high bin

Qu. Kindly state the category for this compound: O=C(CCc1ccncc1)N(Cc1nc2c(c(=O)[nH]1)COCC2)Cc1cccs1
Ans. high bin

Qu. Kindly state the category for this compound: O=C(NC[C@@H]1CCCO1)c1nc[nH]c1C(=O)N[C@H]1CC[C@H](C(=O)Nc2ccc(F)cc2Cl)CC1
Ans. mid bin

Qu. Kindly state the category for this compound: O=C(c1ccccc1)C1CCN(CC(=O)N(Cc2nc3c(c(=O)[nH]2)COCC3)CC(F)F)CC1
Ans. mid bin

Qu. Kindly state the category for this compound: Cn1ccc2c(=O)[nH]c(N3CCN(c4ccc(F)cc4)CC3)nc21
Ans. low bin

Qu. Kindly state the category for this compound: Cc1cnc2c(C(=O)N[C@H]3CC[C@H](C(=O)Nc4ccc(F)cc4Cl)CC3)cnn2c1
Ans. mid bin

Qu. Kindly state the category for this compound: CC(C)(C)OC(=O)N1CCC([C@@H]2Cc3[nH]c(=O)c4ccccc4c3CO2)CC1 (single isomer, unassigned)
Ans. low bin

Qu. Kindly state the category for this compound: O=C(NCC1CCCO1)c1nc[nH]c1C(=O)N[C@H]1CC[C@H](C(=O)Nc2ccc(F)cc2Cl)CC1 (some centres unmarked)
Ans. mid bin

Qu. Kindly state the category for this compound: COc1ccc(-c2n[nH]cc2C2NC(=O)c3ccccc3N2C)cc1 (centres unmarked)
Ans. low bin

Qu. Kindly state the category for this compound: O=C(N[C@H]1CC[C@H](C(=O)Nc2ccc(F)cc2Cl)CC1)c1cnn2ccc(N3CCOCC3)nc12
Ans. mid bin

Qu. Kindly state the category for this compound: COC(C)CNC(=O)c1nc[nH]c1C(=O)N[C@H]1CC[C@H](C(=O)Nc2c(F)cc(F)cc2Cl)CC1 (some centres unmarked)
Ans. mid bin

Qu. Kindly state the category for this compound: CN1CC(NC(=O)c2nc[nH]c2C(=O)N[C@H]2CC[C@@]3(CCN(c4ccc(F)cc4Cl)C3=O)CC2)C1
Ans. low bin

Qu. Kindly state the category for this compound: CC(C)C1Cc2[nH]c(=O)c3ccncc3c2CO1 (racemic)
Ans. mid bin

Qu. Kindly state the category for this compound: O=C(NCC(F)(F)F)c1nc[nH]c1C(=O)N[C@H]1CC[C@H](C(=O)Nc2cc(N3CCOCC3)ccc2Cl)CC1
Ans. high bin

Qu. Kindly state the category for this compound: C[C@@H](c1ccccc1)N(Cc1nc2c(c(=O)[nH]1)COCC2)S(=O)(=O)Cc1ccccc1
Ans. high bin

Qu. Kindly state the category for this compound: COCCNC(=O)c1nc[nH]c1C(=O)N[C@H]1CC[C@@]2(CCN(c3cc(C)c(F)cc3Cl)C2=O)CC1
Ans. low bin

----------
Assembled from different publications: IC50 for Poly [ADP-ribose] polymerase tankyrase-1 (Homo sapiens).
Answer in nM, number only, no unit symbol.

CNC(=O)c1nc[nH]c1C(=O)N[C@H]1CC[C@H](C(=O)Nc2cc(C(F)(F)F)ccc2Cl)CC1 tested on Poly [ADP-ribose] polymerase tankyrase-1 (Homo sapiens) gave IC50: 93

CC(C)OCCNC(=O)c1nc[nH]c1C(=O)N[C@H]1CC[C@H](C(=O)Nc2ccc(F)cc2Cl)CC1 tested on Poly [ADP-ribose] polymerase tankyrase-1 (Homo sapiens) gave IC50: 94

O=C(NCCO)c1nc[nH]c1C(=O)N[C@H]1CC[C@H](C(=O)Nc2ccc(F)cc2Cl)CC1 tested on Poly [ADP-ribose] polymerase tankyrase-1 (Homo sapiens) gave IC50: 94

Cn1ccc2c(=O)[nH]c(N3CCN(c4cnccn4)CC3)nc21 tested on Poly [ADP-ribose] polymerase tankyrase-1 (Homo sapiens) gave IC50: 155

CC1(C2Cc3[nH]c(=O)c4ccccc4c3CO2)COC1 (racemic) tested on Poly [ADP-ribose] polymerase tankyrase-1 (Homo sapiens) gave IC50: 81.4

----------
Assembled from different publications: pIC50 for Poly [ADP-ribose] polymerase tankyrase-1 (Homo sapiens).
# pIC50 is unitless: minus log10 of the molar concentration; print number only

O=C(CCc1ccccc1F)N(Cc1ccc[nH]1)Cc1nc2c(c(=O)[nH]1)COCC2 tested on Poly [ADP-ribose] polymerase tankyrase-1 (Homo sapiens) gave pIC50: 5.93

O=C(NCCN1CCCCC1)c1nc[nH]c1C(=O)N[C@H]1CC[C@H](C(=O)Nc2ccc(F)cc2Cl)CC1 tested on Poly [ADP-ribose] polymerase tankyrase-1 (Homo sapiens) gave pIC50: 6.26

Cn1cc(-c2cc3c(ccn3C)c(=O)[nH]2)cn1 tested on Poly [ADP-ribose] polymerase tankyrase-1 (Homo sapiens) gave pIC50: 6.79

O=C(N[C@H]1CC[C@@]2(CCN(c3ccc(F)cc3Cl)C2=O)CC1)c1cnn2cccnc12 tested on Poly [ADP-ribose] polymerase tankyrase-1 (Homo sapiens) gave pIC50: 7.89

O=C(CN1CCC(c2noc3cc(F)ccc23)CC1)NCc1nc2c(c(=O)[nH]1)COCC2 tested on Poly [ADP-ribose] polymerase tankyrase-1 (Homo sapiens) gave pIC50: 6.68

CC(C)(C)OC(=O)N1CCC([C@H]2Cc3[nH]c(=O)c4ccccc4c3CO2)CC1 (single isomer, unassigned) tested on Poly [ADP-ribose] polymerase tankyrase-1 (Homo sapiens) gave pIC50: 7.36

O=C(CN1CCC(C(=O)c2ccc(F)cc2)CC1)NCc1nc2c(c(=O)[nH]1)CCCC2 tested on Poly [ADP-ribose] polymerase tankyrase-1 (Homo sapiens) gave pIC50: 7.26

Cc1cc(N2CC[C@]3(CC[C@@H](NC(=O)c4cnc5cccnn45)CC3)C2=O)c(Cl)cc1F tested on Poly [ADP-ribose] polymerase tankyrase-1 (Homo sapiens) gave pIC50: 8.19

Cc1cc(N2CC[C@]3(CC[C@@H](NC(=O)c4[nH]cnc4C(=O)NCC(F)(F)F)CC3)C2=O)c(Cl)cc1F tested on Poly [ADP-ribose] polymerase tankyrase-1 (Homo sapiens) gave pIC50: 8.00

Cc1cc(C)n2ncc(C(=O)N[C@H]3CC[C@H](C(=O)Nc4cnccc4Cl)CC3)c2n1 tested on Poly [ADP-ribose] polymerase tankyrase-1 (Homo sapiens) gave pIC50: 7.46

COc1ccc(C(=O)C2CCN(CC(=O)NCc3nc4c(c(=O)[nH]3)COCC4)CC2)cc1 tested on Poly [ADP-ribose] polymerase tankyrase-1 (Homo sapiens) gave pIC50: 7.55

COc1ccc(C(=O)C2CCN(CC(=O)NCc3nc4c(c(=O)[nH]3)CCC4)CC2)cc1 tested on Poly [ADP-ribose] polymerase tankyrase-1 (Homo sapiens) gave pIC50: 7.55

O=C(NCC(F)(F)F)c1nc[nH]c1C(=O)N[C@H]1CC[C@@]2(CCN(c3cc(F)c(F)cc3Cl)C2=O)CC1 tested on Poly [ADP-ribose] polymerase tankyrase-1 (Homo sapiens) gave pIC50: 8.26

CCNC(=O)c1ccc(N2CCN(c3nc4c(ccn4C)c(=O)[nH]3)CC2)cc1 tested on Poly [ADP-ribose] polymerase tankyrase-1 (Homo sapiens) gave pIC50: 7.43
